# Test system: M14
# Method Summary: NCI tumour cell line growth inhibition, 48 h
The source made the active and inactive calls. Rule as the data show it: active = GI50 up to about 1.1 µM and inactive = higher.
Reported Property: GI50

[
  {
    "Compound": "O=C1NC(c2ccccc2)C1N(Cc1ccccc1)Cc1ccccc1 (stereo not given)",
    "GI50": "> 100 µM (inactive)"
  },
  {
    "Compound": "CC(=O)/C(=N\\N=C(N)N)c1ccccc1",
    "GI50": "> 100 µM (inactive)"
  },
  {
    "Compound": "COc1ccc2c(NCCCCCCNc3c4ccccc4nc4cc(OC)ccc34)c3ccccc3nc2c1",
    "GI50": "0.48 µM (active)"
  },
  {
    "Compound": "CCOC(=O)C1(C)CCCCC(=O)N1 (stereo not given)",
    "GI50": "> 100 µM (inactive)"
  }
]

(Q) GI50 lookup needed for `Oc1cc(O)c2c(-c3c(O)c(-c4ccc(O)c(O)c4)[o+]c4cc(O)cc(O)c34)c(O)c(-c3ccc(O)c(O)c3)[o+]c2c1` , thanks.
(A) 55.5 µM (inactive)

// data source = ChEMBL document CHEMBL1201862
